# METHOD DESCRIPTION: Volume of distribution at terminal phase in rat at 5 umol/kg, iv
# Format: ADME, organism-based
# CONDITION SUMMARY: in vivo, read-out: Vbeta
ENDPOINT LABEL: Vd (L/kg)
Report the figure in L/kg without appending any unit label.

[in] Consider the compound shown here: `O=C(NNc1cccc2ncccc12)C12CC3CC(CC(C3)C1)C2` What is its recorded Vd?
[out] 0.9

----------
# Tested on: Rattus norvegicus
# METHOD DESCRIPTION: AUC in rat at 5 umol/kg, iv
# Format: ADME, organism-based, Plasma
# CONDITION SUMMARY: in vivo
ENDPOINT LABEL: AUC (ng·h/mL)
Report the figure in ng·h/mL without appending any unit label.

[in] Consider the compound shown here: `O=C(NNc1cccc2ncccc12)C12CC3CC(CC(C3)C1)C2` What is its recorded AUC?
[out] 940

----------
Overview of recorded pIC50 for various molecules
# SYSTEM: P2X purinoceptor 7 (Homo sapiens)
# Sequence (Q99572 whole entry): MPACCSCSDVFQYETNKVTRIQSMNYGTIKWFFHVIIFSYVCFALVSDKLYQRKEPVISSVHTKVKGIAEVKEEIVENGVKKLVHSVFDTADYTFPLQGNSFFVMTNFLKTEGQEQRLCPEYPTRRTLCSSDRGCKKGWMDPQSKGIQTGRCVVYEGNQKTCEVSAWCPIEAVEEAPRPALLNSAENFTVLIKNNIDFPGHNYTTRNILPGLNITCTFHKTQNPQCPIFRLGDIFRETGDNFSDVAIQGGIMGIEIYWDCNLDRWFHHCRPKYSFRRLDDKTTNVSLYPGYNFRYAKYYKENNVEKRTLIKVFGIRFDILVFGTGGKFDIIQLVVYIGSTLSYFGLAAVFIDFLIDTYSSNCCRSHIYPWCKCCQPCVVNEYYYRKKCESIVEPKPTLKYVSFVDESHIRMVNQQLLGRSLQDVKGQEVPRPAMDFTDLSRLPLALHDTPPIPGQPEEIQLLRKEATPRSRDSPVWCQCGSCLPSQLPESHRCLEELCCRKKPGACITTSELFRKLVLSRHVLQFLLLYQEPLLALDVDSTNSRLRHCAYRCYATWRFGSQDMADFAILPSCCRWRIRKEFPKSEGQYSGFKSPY
# METHOD DESCRIPTION: Antagonist activity at human recombinant P2X7 receptor expressed in human 1321N1 cells assessed as benzoyl-ATP-induced calcium flux by FLIPR assay
# Type: functional, cell-based
Convention used: pIC50 is expressed as -log10 of the molar concentration.

# CHEMICAL STRUCTURE, pIC50
data = [
    ("CCC12CC3CC(C1)CC(C(=O)NNc1cccc4ncccc14)(C3)C2", 7.64),
    ("O=C(NNc1cccc2nc(Cl)ccc12)C12CC3CC(CC(C3)C1)C2", 7.29),
    ("O=C(NNc1cccc2ncccc12)C12CC3CC(CC(Cl)(C3)C1)C2", 7.99),
    ("O=C(NNc1ccc(F)cc1)C12CC3CC(CC(C3)C1)C2", 6.55),
    ("O=C(NNc1ccccn1)C12CC3CC(CC(C3)C1)C2", 6.66),
    ("Cc1ccccc1NNC(=O)C12CC3CC(CC(C3)C1)C2", 7.93),
]

[in] Notebook entry, P2X purinoceptor 7 (Homo sapiens) assay: pIC50 of `O=C(NNc1ccccc1F)C12CC3CC(CC(C3)C1)C2` = ?
[out] 7.40

[in] Notebook entry, P2X purinoceptor 7 (Homo sapiens) assay: pIC50 of `Cc1ccccc1NNC(=O)C1CCCCCC1` = ?
[out] 7.47

[in] Notebook entry, P2X purinoceptor 7 (Homo sapiens) assay: pIC50 of `O=C(NNc1ccccc1Cl)C12CC3CC(CC(C3)C1)C2` = ?
[out] 7.94

[in] Notebook entry, P2X purinoceptor 7 (Homo sapiens) assay: pIC50 of `Cc1ccccc1NNC(=O)CC1CCCCC1` = ?
[out] 7.41

----------
# System: Rattus norvegicus
# METHOD DESCRIPTION: AUC in rat at 5 umol/kg, ip
# Type: ADME, organism-based, Plasma
# CONDITION SUMMARY: in vivo
ENDPOINT LABEL: AUC (ng·h/mL)
Report the figure in ng·h/mL without appending any unit label.

[in] Consider the compound shown here: `O=C(NNc1cccc2ncccc12)C12CC3CC(CC(C3)C1)C2` What is its recorded AUC?
[out] 390

----------
# SYSTEM: P2X purinoceptor 7 (Rattus norvegicus, UniProt Q64663)
# Sequence (Q64663 whole entry): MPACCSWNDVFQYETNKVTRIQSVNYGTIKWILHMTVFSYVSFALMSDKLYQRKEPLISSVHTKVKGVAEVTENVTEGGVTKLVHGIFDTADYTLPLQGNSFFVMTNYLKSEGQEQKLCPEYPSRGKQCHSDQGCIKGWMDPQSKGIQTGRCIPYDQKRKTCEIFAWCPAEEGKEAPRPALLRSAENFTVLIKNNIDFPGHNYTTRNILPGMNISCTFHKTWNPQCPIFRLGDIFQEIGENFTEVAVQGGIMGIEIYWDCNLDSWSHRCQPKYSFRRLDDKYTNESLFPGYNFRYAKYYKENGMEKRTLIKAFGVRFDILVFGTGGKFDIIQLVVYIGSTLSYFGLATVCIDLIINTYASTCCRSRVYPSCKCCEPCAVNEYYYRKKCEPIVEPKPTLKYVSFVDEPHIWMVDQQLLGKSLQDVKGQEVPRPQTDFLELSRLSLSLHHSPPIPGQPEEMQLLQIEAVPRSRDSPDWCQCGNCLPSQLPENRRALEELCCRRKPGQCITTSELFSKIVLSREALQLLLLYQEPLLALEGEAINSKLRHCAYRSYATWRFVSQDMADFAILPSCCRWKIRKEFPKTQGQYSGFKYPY
# METHOD DESCRIPTION: Antagonist activity at rat recombinant P2X7 receptor expressed in human 1321N1 cells assessed as benzoyl-ATP-induced calcium flux by FLIPR assay
# Format: functional, cell-based
Overview of recorded pIC50 for various molecules
Convention used: pIC50 is expressed as -log10 of the molar concentration.

// worked examples, pIC50 included
# CHEMICAL STRUCTURE, SYSTEM, pIC50
measured = [
    ("Cc1ccc(C)c(NNC(=O)C23CC4CC(CC(C4)C2)C3)c1", "P2X purinoceptor 7 (Rattus norvegicus, UniProt Q64663)", 6.87),
    ("O=C(NNc1cccc2cnccc12)C12CC3CC(CC(C3)C1)C2", "P2X purinoceptor 7 (Rattus norvegicus, UniProt Q64663)", 6.82),
]

[in] Consider the molecule shown here: `O=C(NNc1ccc(F)cc1)C12CC3CC(CC(C3)C1)C2` What is its recorded pIC50?
[out] 5.97

----------
Overview of recorded pIC50 for various molecules
# SYSTEM: P2X purinoceptor 7 (Rattus norvegicus)
# METHOD DESCRIPTION: Antagonist activity at rat recombinant P2X7 receptor expressed in human 1321N1 cells assessed as benzoyl-ATP-induced calcium flux by FLIPR assay
Convention used: pIC50 is expressed as -log10 of the molar concentration.

// worked examples, pIC50 included
# MOLECULE, ENDPOINT LABEL, TEST RESULT
data = [
    ("O=C(NNc1cccc2ncccc12)C12CC3CC(CC1C3)C2", "pIC50", 7.28),
    ("O=C(NNc1cccc2nc(Cl)ccc12)C12CC3CC(CC(C3)C1)C2", "pIC50", 6.76),
    ("O=C(NNc1ccccc1)C12CC3CC(CC(C3)C1)C2", "pIC50", 6.56),
    ("O=C(NNc1cccc2ncccc12)C1(c2ccccc2F)CCCCC1", "pIC50", 6.49),
    ("CC1(C(=O)NNc2cccc3ncccc23)CC2C=CC1C2 (stereo not given)", "pIC50", 7.50),
    ("O=C(CC12CC3CC(CC(C3)C1)C2)NNc1cccc2ncccc12", "pIC50", 6.22),
]

[in] Consider the molecule shown here: `O=C(NNc1cccc2ncccc12)C1(c2ccc(F)cc2)CCCCC1` What is its recorded pIC50?
[out] 6.76

[in] Consider the molecule shown here: `Cc1ccccc1NNC(=O)C1(C)CCCCC1` What is its recorded pIC50?
[out] 6.83

----------
# SYSTEM: P2X purinoceptor 7 (Rattus norvegicus, UniProt Q64663)
# METHOD DESCRIPTION: Antagonist activity at rat recombinant P2X7 receptor expressed in human 1321N1 cells assessed as benzoyl-ATP-induced calcium flux by FLIPR assay
pIC50: −log10 of the molar value.
Threshold rule: pIC50 greater than or equal to 7 is rule met; below that, rule not met.

Examples with answers:
# CHEMICAL STRUCTURE, CATEGORY
data = [
    ("O=C(NNc1cccc2ncccc12)C12CC3CC(CC(O)(C3)C1)C2", "rule not met"),
    ("O=C(NNc1ccccc1Cl)C12CC3CC(CC(C3)C1)C2", "rule met"),
]

Shift focus to the following entry.
[in] Can `Cc1ccccc1NNC(=O)C12CC3CC(CC(C3)C1)C2` be said to have pIC50 at or above 7?
[out] rule met

----------
Overview of recorded pIC50 for various compounds
# SYSTEM: P2X purinoceptor 7 (Homo sapiens)
# METHOD DESCRIPTION: Antagonist activity at human recombinant P2X7 receptor expressed in human 1321N1 cells assessed as benzoyl-ATP-induced calcium flux by FLIPR assay
# Type: functional, cell-based
Convention used: pIC50 is expressed as -log10 of the molar concentration.

# COMPOUND, SYSTEM, TEST RESULT
records = [
    ("O=C(NNc1cccc(Cl)c1Cl)C12CC3CC(CC(C3)C1)C2", "P2X purinoceptor 7 (Homo sapiens)", 7.46),
]

[in] Consider the compound shown here: `O=C(NNc1cccc2ncccc12)C12CC3CC(CC(O)(C3)C1)C2` What is its recorded pIC50?
[out] 6.56

[in] Consider the compound shown here: `O=C(NNc1cccc2ncccc12)C1(c2ccccc2F)CCCCC1` What is its recorded pIC50?
[out] 6.72

[in] Consider the compound shown here: `Cc1ccccc1NNC(=O)CCC(C)C` What is its recorded pIC50?
[out] 6.83

[in] Consider the compound shown here: CC1(C)C2CCC1(C(=O)NNc1cccc3ncccc13)C(=O)C2 (configuration not stated) What is its recorded pIC50?
[out] 5.86

[in] Consider the compound shown here: `O=C(NNc1cccc(F)c1)C12CC3CC(CC(C3)C1)C2` What is its recorded pIC50?
[out] 6.49

[in] Consider the compound shown here: `COc1ccc(NNC(=O)C23CC4CC(CC(C4)C2)C3)cc1` What is its recorded pIC50?
[out] 6.01

[in] Consider the compound shown here: `CCCCCCC(=O)NNc1ccccc1C` What is its recorded pIC50?
[out] 6.39

----------
# METHOD DESCRIPTION: Half life in rat at 5 umol/kg, iv
# Assay type: ADME, organism-based
# CONDITION SUMMARY: in vivo
ENDPOINT LABEL: half-life (min)
Report the figure in min without appending any unit label.

[in] Consider the compound shown here: `O=C(NNc1cccc2ncccc12)C12CC3CC(CC(C3)C1)C2` What is its recorded half-life?
[out] 24

----------
# METHOD DESCRIPTION: Bioavailability in rat at 5 umol/kg, ip
# Format: ADME, organism-based
# CONDITION SUMMARY: in vivo
ENDPOINT LABEL: bioavailability (%)
Report the figure in % without appending any unit label.

[in] Consider the molecule shown here: `O=C(NNc1cccc2ncccc12)C12CC3CC(CC(C3)C1)C2` What is its recorded bioavailability?
[out] 42
